molecular target: Nuclear receptor ROR-gamma (Mus musculus) (UniProt P51450); assay: qHTS for inhibitors of ROR gamma transcriptional activity; conditions: Drosophila S2 Gal4-RORgamma UAS-luciferase reporter, 20 h; series mostly up to 53.6 µM; note: nearly all actives have a fitted effect of over 60% in size
Sequence (P51450 whole entry, looked up, the tested form may be a part): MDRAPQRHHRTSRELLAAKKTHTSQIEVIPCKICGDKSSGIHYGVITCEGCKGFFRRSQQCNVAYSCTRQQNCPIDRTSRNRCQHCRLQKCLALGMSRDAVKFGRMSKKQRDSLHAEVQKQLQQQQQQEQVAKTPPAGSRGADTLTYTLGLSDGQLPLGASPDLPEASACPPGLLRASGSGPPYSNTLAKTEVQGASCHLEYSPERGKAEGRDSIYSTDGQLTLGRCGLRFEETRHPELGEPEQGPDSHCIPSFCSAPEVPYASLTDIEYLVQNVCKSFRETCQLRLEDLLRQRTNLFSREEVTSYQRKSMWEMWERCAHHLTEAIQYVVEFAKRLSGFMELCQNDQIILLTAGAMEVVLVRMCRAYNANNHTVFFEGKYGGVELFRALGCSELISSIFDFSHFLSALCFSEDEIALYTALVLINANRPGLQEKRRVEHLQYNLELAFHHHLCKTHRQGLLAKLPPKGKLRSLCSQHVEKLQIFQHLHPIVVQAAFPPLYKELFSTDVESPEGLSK
The whole screen tested about 310,000 compounds, of which about 17,000 (5.5%) were called active. About 11% were inconclusive and are not listed. Calls come from the whole dose curve; as a rule, active = well fitted inhibition curve with a large enough effect; inconclusive = small, poorly fitted or top-dose-only effect, or effect the other way; inactive = no such curve, though single readings can be large or run the other way. This excerpt belongs to a sample that is enriched for actives.
Bench note: report the call from yes = active, no = inactive

Called result for COc1ccc(CCn2c(=N)c(C(=O)NCC3CCCO3)cc3c(=O)n4cccc(C)c4nc32)cc1OC (configuration not stated) no

----------
target: Nuclear receptor ROR-gamma (Mus musculus); experiment: qHTS for inhibitors of ROR gamma transcriptional activity; conditions: Drosophila S2 Gal4-RORgamma UAS-luciferase reporter, 20 h; series mostly up to 53.6 µM; note: nearly all actives have a fitted effect of over 60% in size
About 17,000 (5.5%) of roughly 310,000 compounds were called active. Not shown: some 11% with an inconclusive outcome. The call rests on the fitted dose curve; in most records, active means well fitted inhibition curve with a large enough effect; inconclusive means small, poorly fitted or top-dose-only effect, or effect the other way; inactive means no such curve, though single readings can be large or run the other way. The full list was thinned out, with actives kept by preference.
Can you answer with just one of these options? active, inactive

What is the recorded call for this compound in the test? CCC(C)c1ccc(NC(=S)N2CCCC2)cc1 (centres undefined) active

Origin of measurements: PubChem BioAssay AID2551
